System: DeltatarO mutant
Assay protocol: S. aureus survival, RN4220 and DeltatarO strains – OD600, teichoic acid synthesis inhibitors, primary screen (AID 463173)
Setup conditions: S. aureus RN4220 wild type/DeltatarO growth, OD600, 18 h, hits give low values, screened at 18.75 µg/mL (by protocol)
Screen size: about 52,000 compounds; about 4,300 (8.3%) were called active. This excerpt belongs to a sample that is enriched for actives.
# note: exactly 60% is not below, so it is F; use T for survival strictly under it

{"columns": ["Molecule", "Class"],
 "data": [
  ["COc1ccc(-c2nc(CS(=O)(=O)CC(=O)NCc3ccccc3Br)c(C)o2)cc1", "T"]
]}

Exercise: Is survival strictly under 60% for the entry COc1ccc(-c2nc(CS(=O)CC(=O)NCc3ccccc3Cl)c(C)o2)cc1OC (stereo not given) ?
Key: F

Exercise: What about `CN(C)C(=O)c1ccc(S(=O)(=O)NCc2ccc(Cl)cc2)s1` ?
Key: F

Exercise: Try this molecule next: `CCc1ccc(-c2nc(CSCC(=O)NCc3ccccc3OC)c(C)o2)cc1`
Key: F

Exercise: Input `Cc1oc(-c2cccc(Cl)c2)nc1CSCC(=O)NCc1ccccc1Cl`
Key: T

###

Each record here notes measured survival.
Tested on: DeltatarO mutant
Assay protocol: S. aureus survival, RN4220 and DeltatarO strains – OD600, teichoic acid synthesis inhibitors, primary screen (AID 463173)
Setup conditions: S. aureus RN4220 wild type/DeltatarO growth, OD600, 18 h, hits give low values, screened at 18.75 µg/mL (by protocol)
The campaign covered roughly 52,000 compounds. About 4,300 (8.3%) were called active. The sample as a whole holds a higher share of actives than the screen did.
Record the value in %, omitting the unit from your answer.

Please review the entries below; each comes with its answer.
{"columns": ["Compound", "Tested on", "Measured metric", "Result value"],
 "data": [
  ["CCc1ccc(-n2nc(CO)c(C(=O)NCCCCc3ccccc3)n2)cc1", "DeltatarO mutant", "survival", 47],
  ["CCOC(=O)CSc1nc2sc3c(c2c(=O)n1CC)CCCC3", "DeltatarO mutant", "survival", 58]
]}

Exercise: survival for CC(=O)N1CCCc2cc(S(=O)(=O)N3CCCC(C(=O)Nc4ccc(C)cc4C)C3)ccc21 (stereo not given) ?
Key: 71

Exercise: Again, but for `COc1cc(C(=O)NCCSc2c(-c3ccccc3)[nH]c3ccccc23)cc(OC)c1OC`
Key: 68

Exercise: Please answer likewise for Cc1cccc(C)c1NC(=O)C(=O)NCC(c1ccc2c(c1)OCO2)N1CCN(C)CC1 (stereo not given)
Key: 88

Exercise: Would you mind doing `COc1cc(C(=O)Nc2cc(C)ccc2OCc2cc(=O)n3cc(C)sc3n2)cc(OC)c1OC` as well?
Key: 89

Exercise: Another compound to check: COc1cc(OC)c(NC(=O)C2CCCN(c3ncnc4c3nc3n4CCCCC3)C2)cc1Cl (stereo not given)
Key: 122

Exercise: How about this compound: `CCCCn1c(SCC(=O)c2ccccc2)nc2sc3c(c2c1=O)CCCC3`
Key: 44

Exercise: Could you do the same for `C=C(C)CSc1nc2sc3c(c2c(=O)n1CCCC)CCCC3` , please?
Key: -3

Exercise: Also `C=C(C)Cn1c(SCC(=O)c2ccc(Br)cc2)nc2sc3c(c2c1=O)CCCC3` ?
Key: 50

Measured values drawn from PubChem BioAssay AID463173 for this set.
